- tested.system: BRD4 BD1 (Homo sapiens)
- assay.remarks: AlphaScreen binding assay, BRD4 Bromodomain 1
pIC50: −log10 of the molar value.
measured.parameter: pIC50

Worked cases, pIC50 given:
Bench note: what pIC50 did "CC(=O)N1c2ccc(-c3cn(C)nn3)cc2N(C(=O)OC(C)C)C[C@@H]1C" show?
6.00 to 7.00

And what about the compound "CC(=O)N1c2ccc(-c3cnn(C4CC4)c3)cc2N(C(=O)Oc2ccc(-n3cncn3)cc2)C[C@@H]1C" ?
6.00 to 7.00

And what about the compound "CC(=O)N1c2ccc(-c3cnn(C4COC4)c3)cc2N(C(=O)CC2CCCC2)C[C@@H]1C" ?
5.00 to 6.00

Next, consider the following compound.
Bench note: what pIC50 did "CC(=O)N1c2ccccc2N(Cc2cccc3c2OCO3)C[C@@H]1C" show?
< 5.00
